Where do these numbers come from? They come from patent US20240093251A1.

# Tested on: nitrile hydratase
# experiment: Test Example 1: effect of compounds on the amide formation reaction with Rhodococcus rhodochrous J-1 bacterial cells
# Assay type: biochemical
# condition notes: 5 ppm addition in reaction solution, hydrocyanic acid 2.0 ppm in acrylonitrile, 25° C., 6 hr
Structures can show the parent of a compound that is named as a salt.

molecule | Concentration Ratio (6 hr) (%)
CC=O | 9.2
CCCCCC=O | 17.8
OC[C@@H](O)[C@@H](O)CO [No. 12, meso-erythritol, reference compound] | 118.2
C1N2CN3CN1CN(C2)C3 | 2.4
CCC=O | 1.4
O=CC=Cc1ccccc1 | 102.6
CCCCCCCCC=O | 81.4
O=CO [No. 10, formic acid, reference compound] | 88.9
CC1NC(C)NC(C)N1 (centres unmarked) | 3.3
CCCCCCCCCC=O | 67.0
CCCC=O | 2.7
C=C(C)C1CC=C(C=O)CC1 (centres unmarked) | 59.6
CCCCCCCC=O | 117.5
O=CC=O [No. 11, dialdehyde oxalate] | 12.2
CCCCCCC=O | 17.6
COc1cc(C=O)ccc1O | 71.7
O=Cc1ccccc1 | 66.2
